Origin of the recorded values: patent US20120277143A1

Biological target: T1, human IL4 (human, UniProt P05112 25-153, biotinylated in the SPR and competition assays (sites not given))
T1 construct: Peprotech #200-04, mature protein produced in E. coli; also called hIL4; Interleukin 4
T1 sequence: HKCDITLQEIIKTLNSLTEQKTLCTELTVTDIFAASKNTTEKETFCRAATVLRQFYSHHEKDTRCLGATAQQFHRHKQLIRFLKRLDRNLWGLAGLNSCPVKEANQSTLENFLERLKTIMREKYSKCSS
Test: SPR ProteOn, biotin-IL4 on neutravidin chip, 1:1 fit
measurement_kind: koff (s⁻¹)
Your answer should be a plain number; it is taken to be in s⁻¹.

Problem: Quick one: koff of C06_6E9 (designed binder, ankyrin repeat protein; His-tagged, IMAC-purified) DLGKKLLEAARAGQDDEVRILMANGADVNAIDSDGTTPLHLAAMDGHLEIVEVLLKYGADVNAVDWNGDTPLHLAAVDGHLEIVEVLLKYGADVNAQDNLGDTPLHLAAYYGHLEIVEVLLKHGADVNASDFHGITPLHLAAFSGHLEIVEVLLKYGADVNAQDKFGKTAFDISIDNGNEDLAEILQKLN ?
Result: 7.16e-05

Problem: Same again, this time with C06_19F8 (designed binder, ankyrin repeat protein; His-tagged, IMAC-purified) DLGKKLLEAARAGQDDEVRILMANGADVNATDDWGDTLLHLAATDGHLEIVEVLLKNGADVNASDSQGLTPLHLAAYYGHLEIVEVLLKYGADVNANDHHGITPLHLAAFAGHLEIVEVLLKYGADVNAQDKFGKTAFDISIDNGNEDLAEILQKLN
Result: 5.18e-05

Problem: Okay, and C06_14A4 (designed binder, ankyrin repeat protein; His-tagged, IMAC-purified) DLGKKLLEAARAGQDDEVRILMANGADVNATDAWGLTPLHLAALLGHLEIVEVLLKHGADVNAHDETGFTPLHLAAVEGHLEIVEVLLKYGADVNASDILGRTPLHLAANFGHLEIVEVLLKYGADVNAQDKFGKTAFDISIDNGNEDLAEILQKLN ?
Result: 2.73e-05
